As an illustration, consider measured Toxicity Assay % Fluor (CTB cell viability fluorescence) for compounds on Clone V cells.
Output spec: scalar in %, unitless text.

[
  {
    "Compound": "NC(=O)NO [Hydroxyurea]",
    "Number": 115.47
  },
  {
    "Compound": "O=C1NC(=O)c2c1c1c3ccccc3n3c1c1c2c2ccccc2n1C1CCC3O1",
    "Number": 109.07
  },
  {
    "Compound": "N.N.O=C([O-])C1(C(=O)[O-])CCC1.[Pt+2]",
    "Number": 109.23
  },
  {
    "Compound": "c1cc(-c2cnn3cc(-c4ccc(OCCN5CCCCC5)cc4)cnc23)ccn1",
    "Number": 115.42
  }
]

Recorded Toxicity Assay % Fluor (CTB cell viability fluorescence) (compound `O=C1NC(=O)/C(=C/c2ccc3c(c2)OCO3)S1` ): 113.38

====

system: Clone V cells; test: CellTiter Blue (CTB) cell viability counter-screen; details: CC_NCI screening; CTB cell viability fluorescence; normalized to on-plate 0.3% DMSO controls
Where a name gives a salt, the structure may show the parent alone.
# note: exactly 90% is not below, so it is 0 (no); use 1 (yes) for Toxicity Assay % Fluor strictly under it

[
  {
    "Molecule": "O=C(/C=C/c1cccc(S(=O)(=O)Nc2ccccc2)c1)NO",
    "Target entity": "Clone V cells",
    "Discrete label": "0 (no)"
  },
  {
    "Molecule": "COC(=O)C[C@](O)(CCCC(C)(C)O)C(=O)O[C@@H]1C(OC)=C[C@]23CCCN2CCc2cc4c(cc2[C@H]13)OCO4 [Omacetaxine mepesuccinate]",
    "Target entity": "Clone V cells",
    "Discrete label": "0 (no)"
  },
  {
    "Molecule": "C#Cc1cccc(Nc2ncnc3cc(OCCOC)c(OCCOC)cc23)c1 [Erlotinib hydrochloride]",
    "Target entity": "Clone V cells",
    "Discrete label": "0 (no)"
  }
]

Bench note: check whether `CC1=C(/C=C/C(C)=C/C=C/C(C)=C/C(=O)O)C(C)(C)CCC1` shows Toxicity Assay % Fluor below 90%
1 (yes)

Bench note: check whether CN(C)C/C=C/C(=O)Nc1cc2c(Nc3ccc(F)c(Cl)c3)ncnc2cc1O[C@H]1CCOC1 [Afatinib] shows Toxicity Assay % Fluor below 90%
1 (yes)

Bench note: check whether `CO[C@H]1C[C@@H]2CC[C@@H](C)[C@@](O)(O2)C(=O)C(=O)N2CCCC[C@H]2C(=O)O[C@H]([C@H](C)C[C@@H]2CC[C@@H](O)[C@H](OC)C2)CC(=O)[C@H](C)/C=C(\C)[C@@H](O)[C@@H](OC)C(=O)[C@H](C)C[C@H](C)/C=C/C=C/C=C/1C` shows Toxicity Assay % Fluor below 90%
0 (no)

Bench note: check whether `CN(N=O)C(=O)N[C@@H](C=O)[C@@H](O)[C@H](O)[C@H](O)CO` shows Toxicity Assay % Fluor below 90%
0 (no)

Bench note: check whether `O=C(c1cc(Cc2n[nH]c(=O)c3ccccc23)ccc1F)N1CCN(C(=O)C2CC2)CC1` shows Toxicity Assay % Fluor below 90%
0 (no)
